Note to self: use class 1 only for logP readings below 5; a reading exactly at 5 still gets class 0.

{"columns": ["compound", "class assignment"],
 "data": [
  ["ClC(CCCCCC(Cl)CC(Cl)(Cl)Cl)CC(Cl)(Cl)Cl (stereo not given)", "class 0"],
  ["CC(Cl)CCC(Cl)C(Cl)CCC(C)Cl (stereo not given)", "class 1"],
  ["ClC(CCC(Cl)C(Cl)CCC(Cl)CC(Cl)(Cl)Cl)CC(Cl)(Cl)Cl (stereo not given)", "class 0"]
]}

The values you see were collected from the SangsterLogP compilation.
